Hi there, I'd appreciate the recorded competition (1-response value/blank value) for every entry that follows.
Target: T1, Human CD228 protein (human, UniProt P08582 20-708, limits assumed)
T1 construct: Recombinant protein made in CHO cells, purified over a Ni column; The printed entry begins with the leader (MRGPSG...) and ends with ten His; also called hCD228; CD228-His protein
T1 sequence: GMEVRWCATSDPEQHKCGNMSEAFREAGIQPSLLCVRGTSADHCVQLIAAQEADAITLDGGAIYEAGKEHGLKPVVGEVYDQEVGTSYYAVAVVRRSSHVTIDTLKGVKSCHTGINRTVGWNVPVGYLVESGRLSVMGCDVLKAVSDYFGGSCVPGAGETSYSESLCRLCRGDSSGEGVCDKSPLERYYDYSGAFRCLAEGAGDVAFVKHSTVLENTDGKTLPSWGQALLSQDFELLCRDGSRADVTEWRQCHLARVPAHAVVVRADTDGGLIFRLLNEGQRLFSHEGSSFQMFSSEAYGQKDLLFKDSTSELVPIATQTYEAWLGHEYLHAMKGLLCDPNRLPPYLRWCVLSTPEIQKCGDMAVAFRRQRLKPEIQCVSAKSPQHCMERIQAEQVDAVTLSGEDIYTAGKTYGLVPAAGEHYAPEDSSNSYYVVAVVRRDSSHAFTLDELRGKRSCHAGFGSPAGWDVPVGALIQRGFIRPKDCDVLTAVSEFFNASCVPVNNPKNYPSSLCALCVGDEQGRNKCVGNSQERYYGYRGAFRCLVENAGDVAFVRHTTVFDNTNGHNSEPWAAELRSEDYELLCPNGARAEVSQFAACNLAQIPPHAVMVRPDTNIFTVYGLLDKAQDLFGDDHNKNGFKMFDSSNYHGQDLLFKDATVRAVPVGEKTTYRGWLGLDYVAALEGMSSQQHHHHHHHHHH
Assay: Octet competition on His-chip CD228; competitor: CA185
Value expressed in %; do not type the unit.

Sure, the documented competition (1-response value/blank value) for BA352 (antibody, human IgG1, kappa, V domains shown, Intact IgG1) VH: EVQLVESGGGVVQPGRSLRLSCAASGFTFSSYAMHWVRQAPGKGLEWVAVISYDGSNKYYADSVKGRFTISRDNSKNTLYLQMNSLRAEDTAVYYCARGPYLAAAGTALTFDIWGQGTMVTVSS VL: DIQMTQSPSAMSASVGDRVTITCRASQGINNYLAWFQQKPGKVPKRLIYAASSLQSGVPSRFSGSGSGTEFTLTISSLQPEDFATYYCLQHNSYPFTFGPGTKVDIKR is -3

Sure, the documented competition (1-response value/blank value) for CA185 (antibody, human IgG1, kappa, V domains shown, Intact IgG1) VH: EVQLVESGGGVVQPGRSLRLSCAASGFTFSSYAMHWVRQAPGKGLEWVAVISYDGSNKYYADSVKGRFTISRDNSKNTLYLQMNSLRAEDTAVYYCAREVPYYYGSGPFDYWGQGTLVTVSS VL: EIVLTQSPGTLSLSPGERATLSCRASQSVSSSSLAWYQQKPGQAPRHLIDGASSRASGIPDRFSGSGSGTDFTLTISRLEPEDFAVYYCQQYGSSYTFGQGTKVDIKR is 99

GET /value?item= CA67 (antibody, human IgG1, kappa, V domains shown, Intact IgG1) VH: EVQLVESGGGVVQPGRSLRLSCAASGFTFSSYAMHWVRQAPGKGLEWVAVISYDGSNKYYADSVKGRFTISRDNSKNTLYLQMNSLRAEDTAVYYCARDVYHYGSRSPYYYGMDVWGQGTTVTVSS VL: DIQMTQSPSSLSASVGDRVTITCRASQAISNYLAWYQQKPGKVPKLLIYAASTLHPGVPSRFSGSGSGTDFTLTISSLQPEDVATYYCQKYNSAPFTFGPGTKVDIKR &field=competition (1-response value/blank value) returns 103

Sure, the documented competition (1-response value/blank value) for CA518 (antibody, human IgG1, kappa, V domains shown, Intact IgG1) VH: EVQLVESGGGVVQPGRSLRLSCAASGFTFSSYAMHWVRQAPGKGLEWVAVISYDGSNKYHADSVKGRFTISRDNSKNTLFLQMNSLRAEDTAVYYCVRDVYHYGSRSPYYYGMDVWGQGTTVTVSS VL: DIQMTQSPSSVSASVGDRVTITCRASQGISSWLAWYQQKPGKAPKLLIYAASSLQSGVPSRFSGSGSGTDFTLTISSLQPEDVATYYCQKYNSAPFTFGPGTKVDIKR is 101

Kindly note the recorded competition (1-response value/blank value) for CA13 (antibody, human IgG1, kappa, V domains shown, Intact IgG1 from fully human antibody-transgenic mice) VH: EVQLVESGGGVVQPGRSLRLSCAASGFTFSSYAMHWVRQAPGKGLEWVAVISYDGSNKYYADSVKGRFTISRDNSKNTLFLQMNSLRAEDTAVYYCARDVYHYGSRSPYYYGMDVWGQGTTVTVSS VL: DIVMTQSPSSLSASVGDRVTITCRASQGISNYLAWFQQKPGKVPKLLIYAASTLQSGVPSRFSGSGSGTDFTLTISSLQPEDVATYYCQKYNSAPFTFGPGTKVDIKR , which is 101

The binder identified as reference antibody hL49 (antibody, human IgG1, kappa, V domains shown, also called H149; hL49 analogy) VH: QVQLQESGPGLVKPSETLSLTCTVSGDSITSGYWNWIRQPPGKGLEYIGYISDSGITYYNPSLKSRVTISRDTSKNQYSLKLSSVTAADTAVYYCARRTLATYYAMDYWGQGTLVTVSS VL: DFVMTQSPLSLPVTLGQPASISCRASQSLVHSDGNTYLHWYQQRPGQSPRLLIYRVSNRFSGVPDRFSGSGSGTDFTLKISRVEAEDVGVYYCSQSTHVPPTFGQGTKLEIKR registered its competition (1-response value/blank value) at -5
